Where do the numbers come from? From PubChem BioAssay AID1963847.

- System: 415267-285-R-J2-PDC complex spheroid viability
- Test summary: Anticancer human tumor 415267-285-R-J2-PDC patient-derived breast carcinoma cell line growth inhibition [POLQ]
- Measurement setup: second compound 1 µM; first compound 0.316 µM; stronger effect = lower value
Measured quantity: viability, T/C (%)
# unit: % | format: bare number

Using the record for O=C(Nc1ccc(O)c(NS(=O)(=O)c2ccc(F)cc2)c1)c1ccc(-c2ccccc2)cc1 + Cc1cccc(N(C)C(=O)C2C(O)CCN2c2nc(C)cc(C(F)(F)F)c2C#N)c1 , state its measured viability, T/C.
109

Retrieve viability, T/C measured for COc1ccc([C@@H](O)c2cc(-c3ncnc4cc(N5CCOCC5)ccc34)c(F)cc2Cl)nn1 + Cc1cccc(N(C)C(=O)C2C(O)CCN2c2nc(C)cc(C(F)(F)F)c2C#N)c1 and print it.
92.7

Specify viability, T/C for Nc1ccn(C2OC(CO)C(O)C2(F)F)c(=O)n1 (stereo not drawn) + COC1C(OC(N)=O)C(O)C(Oc2ccc3c(O)c(NC(=O)c4ccc(O)c(CC=C(C)C)c4)c(=O)oc3c2C)OC1(C)C and stop.
5.6

====

For each entry below, report its viability, T/C value.
- Tested on: 415267-285-R-J2-PDC complex spheroid viability
- Test summary: Anticancer human tumor 415267-285-R-J2-PDC cell line growth inhibition [POLQ];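 note: spheroids exposed to compounds for one week before readout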;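 for viability, T/C: luminescence used as stand-in measure of viable cells; 100% = DMSO vehicle control viability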
- Measurement setup: second compound 0.316 µM; first compound 3.16 µM; stronger effect = lower value
// units = %; emit number, no label

Given the compound CNCc1ccc(-c2[nH]c3cc(F)cc4c3c2CCNC4=O)cc1 + COC1C(OC(N)=O)C(O)C(Oc2ccc3c(O)c(NC(=O)c4ccc(O)c(CC=C(C)C)c4)c(=O)oc3c2C)OC1(C)C , write its reported viability, T/C.
102

Please give measured viability, T/C of the following entry: C#Cc1c(F)ccc2cc(O)cc(-c3ncc4c(N5CC6CCC(C5)N6)nc(OCC56CCCN5CC(F)C6)nc4c3F)c12 (configuration not stated) + Nc1ccc(C#CCN(C(=O)Cc2ncc(C(F)(F)F)cc2C(F)(F)F)c2ccc(F)cc2)nn1
98.5

Provide viability, T/C value for the following compound: CC1COCCN1c1cc(C2(S(C)(=N)=O)CC2)nc(-c2ccnc3[nH]ccc23)n1 (configuration not stated) + COC1C(OC(N)=O)C(O)C(Oc2ccc3c(O)c(NC(=O)c4ccc(O)c(CC=C(C)C)c4)c(=O)oc3c2C)OC1(C)C
7.22

Output measured viability, T/C for this item: CC(C)n1c(=O)n(C)c2cnc3cc(F)c(-c4ccc(OCCCN5CCCCC5)nc4)cc3c21 + COC1C(OC(N)=O)C(O)C(Oc2ccc3c(O)c(NC(=O)c4ccc(O)c(CC=C(C)C)c4)c(=O)oc3c2C)OC1(C)C
112

Please look at this compound and report its viability, T/C: CCc1cc2c(N3CCc4c(cc(Cn5ccnc5)cc4-c4cn(C)nc4C(F)(F)F)C3=O)ccnc2c(OC)n1 + Nc1ccc(C#CCN(C(=O)Cc2ncc(C(F)(F)F)cc2C(F)(F)F)c2ccc(F)cc2)nn1
86.4

Provide measured viability, T/C value, entry: CC1COCCN1c1cc(-c2ccnn2C)c2ccnc(-c3ccn[nH]3)c2n1 (configuration not stated) + Nc1ccc(C#CCN(C(=O)Cc2ncc(C(F)(F)F)cc2C(F)(F)F)c2ccc(F)cc2)nn1
3.82

Look up and state reported viability, T/C for CC(C)n1c(=O)n(C)c2cnc3cc(F)c(-c4ccc(OCCCN5CCCCC5)nc4)cc3c21 + Cc1cccc(N(C)C(=O)C2C(O)CCN2c2nc(C)cc(C(F)(F)F)c2C#N)c1
111

====

- Test system: 415267-285-R-J2-PDC complex spheroid viability
- Test summary: Anticancer human tumor 415267-285-R-J2-PDC cell line growth inhibition [POLQ]; active means viability on the fitted dose curve at most 10% of control; inactive means the rest;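 note: spheroids exposed to compounds for one week before readout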
- Measurement setup: second compound 0.1 µM; first compound 1 µM
Assign a class; possible classes are T = active, F = inactive

# outcome recorded in this test, key = CCc1cc2c(N3CCc4c(cc(Cn5ccnc5)cc4-c4cn(C)nc4C(F)(F)F)C3=O)cc(C)nc2c(OC)n1 + Cc1cccc(N(C)C(=O)C2C(O)CCN2c2nc(C)cc(C(F)(F)F)c2C#N)c1
F

Dear all, I need the recorded test outcome for C=CCn1c(=O)c2cnc(Nc3ccc(N4CCN(C)CC4)cc3)nc2n1-c1cccc(C(C)(C)O)n1 + COC1C(OC(N)=O)C(O)C(Oc2ccc3c(O)c(NC(=O)c4ccc(O)c(CC=C(C)C)c4)c(=O)oc3c2C)OC1(C)C , thank you.
T

State the result this test recorded for COc1ccc([C@@H](O)c2cc(-c3ncnc4cc(N5CCOCC5)ccc34)c(F)cc2Cl)nn1 + Cc1cccc(N(C)C(=O)C2C(O)CCN2c2nc(C)cc(C(F)(F)F)c2C#N)c1 .
F

What outcome does the record of this test show for CC1COCCN1c1cc(C2(S(C)(=N)=O)CC2)nc(-c2ccnc3[nH]ccc23)n1 (stereo not given) + Nc1ccc(C#CCN(C(=O)Cc2ncc(C(F)(F)F)cc2C(F)(F)F)c2ccc(F)cc2)nn1 ?
F

What did this assay record as the result for COc1cccc(OCCCN)c1-c1cc(Nc2cnc(C#N)cn2)n[nH]1 + Cc1cccc(N(C)C(=O)C2C(O)CCN2c2nc(C)cc(C(F)(F)F)c2C#N)c1 ?
T

====

- Test system: 415267-285-R-J2-PDC complex spheroid viability
- Test summary: Anticancer human tumor 415267-285-R-J2-PDC cell line growth inhibition [POLQ]; active = viability on the fitted dose curve at most 10% of control; inactive = the rest;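 note: spheroids exposed to compounds for one week before readout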
- Measurement setup: second compound 1 µM; first compound 10 µM
Entry note: the call must match one of active, inactive

Hi, do you know how COc1ccc([C@@H](O)c2cc(-c3ncnc4cc(N5CCOCC5)ccc34)c(F)cc2Cl)nn1 + Nc1ccc(C#CCN(C(=O)Cc2ncc(C(F)(F)F)cc2C(F)(F)F)c2ccc(F)cc2)nn1 came out in this test?
inactive

Test call for this compound, please: O=c1[nH]cc(F)c(=O)[nH]1 + Cc1cccc(N(C)C(=O)C2C(O)CCN2c2nc(C)cc(C(F)(F)F)c2C#N)c1
inactive

Status in this test for COc1cc(C2c3cc4c(cc3C(OC3OC5COC(C)OC5C(O)C3O)C3COC(=O)C23)OCO4)cc(OC)c1O (stereo not drawn) + COC1C(OC(N)=O)C(O)C(Oc2ccc3c(O)c(NC(=O)c4ccc(O)c(CC=C(C)C)c4)c(=O)oc3c2C)OC1(C)C ?
active

====

- System: 415267-285-R-J2-PDC complex spheroid viability
- Test summary: Anticancer human tumor 415267-285-R-J2-PDC cell line growth inhibition [POLQ];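 note: spheroids exposed to compounds for one week before readout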
- Measurement setup: curve of first compound; second compound 0.316 µM
Measured quantity: log10 of IC50 (log10 of the value in nM)
Please be aware that the numbers have been log10-transformed from IC50 in nM.

Annotate the compound COc1cc(C2c3cc4c(cc3C(OC3OC5COC(C)OC5C(O)C3O)C3COC(=O)C23)OCO4)cc(OC)c1O (stereo not given) + COC1C(OC(N)=O)C(O)C(Oc2ccc3c(O)c(NC(=O)c4ccc(O)c(CC=C(C)C)c4)c(=O)oc3c2C)OC1(C)C with its measured log10 of IC50.
2.17

Give log10 of IC50 for C=CCn1c(=O)c2cnc(Nc3ccc(N4CCN(C)CC4)cc3)nc2n1-c1cccc(C(C)(C)O)n1 + Nc1ccc(C#CCN(C(=O)Cc2ncc(C(F)(F)F)cc2C(F)(F)F)c2ccc(F)cc2)nn1
2.63

Report measured log10 of IC50; entry is CC[C@@]1(O)C(=O)OCc2c1cc1n(c2=O)Cc2cc3c(CN(C)C)c(O)ccc3nc2-1 + Cc1cccc(N(C)C(=O)C2C(O)CCN2c2nc(C)cc(C(F)(F)F)c2C#N)c1
1.31

Hello, please tell me recorded log10 of IC50 for this one: O=C(Nc1ccc(O)c(NS(=O)(=O)c2ccc(F)cc2)c1)c1ccc(-c2ccccc2)cc1 + COC1C(OC(N)=O)C(O)C(Oc2ccc3c(O)c(NC(=O)c4ccc(O)c(CC=C(C)C)c4)c(=O)oc3c2C)OC1(C)C
3.94

Consider the compound CC[C@@]1(O)C(=O)OCc2c1cc1n(c2=O)Cc2cc3c(CN(C)C)c(O)ccc3nc2-1 + Nc1ccc(C#CCN(C(=O)Cc2ncc(C(F)(F)F)cc2C(F)(F)F)c2ccc(F)cc2)nn1 and give its recorded log10 of IC50.
1.41

====

- System: 415267-285-R-J2-PDC complex spheroid viability
- Test summary: Anticancer human tumor 415267-285-R-J2-PDC cell line growth inhibition [POLQ];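 note: spheroids exposed to compounds for one week before readout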
- Measurement setup: curve of first compound; second compound 0.316 µM
pIC50: −log10 of the molar value.
Measured quantity: pIC50

Write pIC50 of CCc1cc2c(N3CCc4c(cc(Cn5ccnc5)cc4-c4cn(C)nc4C(F)(F)F)C3=O)cc(C)nc2c(OC)n1 + COC1C(OC(N)=O)C(O)C(Oc2ccc3c(O)c(NC(=O)c4ccc(O)c(CC=C(C)C)c4)c(=O)oc3c2C)OC1(C)C ; system used: 415267-285-R-J2-PDC complex spheroid viability
< 5.00

Report its pIC50 with 415267-285-R-J2-PDC complex spheroid viability as the test system: CCc1c2c(nc3ccc(O)cc13)-c1cc3c(c(=O)n1C2)COC(=O)[C@]3(O)CC + Cc1cccc(N(C)C(=O)C2C(O)CCN2c2nc(C)cc(C(F)(F)F)c2C#N)c1
> 8.50

Name the value of pIC50 reported for CC(C)n1c(=O)n(C)c2cnc3cc(F)c(-c4ccc(OCCCN5CCCCC5)nc4)cc3c21 + COC1C(OC(N)=O)C(O)C(Oc2ccc3c(O)c(NC(=O)c4ccc(O)c(CC=C(C)C)c4)c(=O)oc3c2C)OC1(C)C when tested on 415267-285-R-J2-PDC complex spheroid viability.
< 5.00

Report value only: pIC50, 415267-285-R-J2-PDC complex spheroid viability, O=C(c1cc(Cc2n[nH]c(=O)c3ccccc23)ccc1F)N1CCN(C(=O)C2CC2)CC1 + COC1C(OC(N)=O)C(O)C(Oc2ccc3c(O)c(NC(=O)c4ccc(O)c(CC=C(C)C)c4)c(=O)oc3c2C)OC1(C)C
< 5.00

Enter measured pIC50, system 415267-285-R-J2-PDC complex spheroid viability, for the compound shown: Nc1ccn(C2OC(CO)C(O)C2(F)F)c(=O)n1 (centres undefined) + COC1C(OC(N)=O)C(O)C(Oc2ccc3c(O)c(NC(=O)c4ccc(O)c(CC=C(C)C)c4)c(=O)oc3c2C)OC1(C)C
> 7.50

Look up 415267-285-R-J2-PDC complex spheroid viability data: pIC50 of CC(C)n1c(=O)n(C)c2cnc3cc(F)c(-c4ccc(OCCCN5CCCCC5)nc4)cc3c21 + Nc1ccc(C#CCN(C(=O)Cc2ncc(C(F)(F)F)cc2C(F)(F)F)c2ccc(F)cc2)nn1 , then report it.
< 5.00

Fill: pIC50 (415267-285-R-J2-PDC complex spheroid viability) for this compound CC(=O)O[C@H]1C(=O)[C@@]2(C)[C@H]([C@H](OC(=O)c3ccccc3)[C@]3(O)C[C@H](OC(=O)[C@H](O)[C@@H](NC(=O)c4ccccc4)c4ccccc4)C(C)=C1C3(C)C)[C@]1(OC(C)=O)CO[C@@H]1C[C@@H]2O + COC1C(OC(N)=O)C(O)C(Oc2ccc3c(O)c(NC(=O)c4ccc(O)c(CC=C(C)C)c4)c(=O)oc3c2C)OC1(C)C
> 8.02

# return pIC50 for CC[C@@]1(O)C(=O)OCc2c1cc1n(c2=O)Cc2cc3c(CN(C)C)c(O)ccc3nc2-1 + COC1C(OC(N)=O)C(O)C(Oc2ccc3c(O)c(NC(=O)c4ccc(O)c(CC=C(C)C)c4)c(=O)oc3c2C)OC1(C)C , test system: 415267-285-R-J2-PDC complex spheroid viability
7.66

Fetch value of pIC50 on 415267-285-R-J2-PDC complex spheroid viability for CCCS(=O)(=O)Nc1ccc(F)c(C(=O)c2c[nH]c3ncc(-c4ccc(Cl)cc4)cc23)c1F + Cc1cccc(N(C)C(=O)C2C(O)CCN2c2nc(C)cc(C(F)(F)F)c2C#N)c1 .
< 5.00
